# ASSAY_NOTES: Half life in C57BL/6J mouse at 0.5 mg/kg, iv measured after 0.083 to 24 hrs by LC-MS/MS analysis
# Format: ADME, organism-based
# TEST_CONTEXT: in vivo, time 0.083-24 hrs
VALUE_TYPE: half-life (h)

- CO[C@H]1[C@H](O)[C@@H](O)c2nc(CCc3cccc(Oc4ccccc4)c3)cn2[C@@H]1C(=O)O: 2.1
- O=C(O)[C@@H]1[C@@H](O)[C@H](O)[C@@H](O)c2nc(CCc3cccc(Oc4ccccc4)c3)cn21: 1.6
